Protocol details: clinical
Settings: both sexes, human, in vivo, po, 100 mg, AUCO-t
Measurement label: AUC (ng·h/mL)
The reply should be a number in ng·h/mL, with the unit left off.

Prompt: Look up and report measured AUC for this entry: O[C@H]1CC[C@H](Nc2ncc3nc(Nc4c(F)cc(F)cc4F)n([C@H]4CCOC4)c3n2)CC1
Response: 14200

###

Protocol details: Pharmacokinetics (plasma and urine) of ascending multiple oral doses in healthy volunteers
Assay type: in vivo, human
Settings: both sexes, human, plasma, oral, 100 mg, 100 mg QD, Day 1, plasma (N = 8); geometric mean
Measurement label: AUC(0-inf)

Prompt: Supply measured AUC(0-inf) of O[C@H]1CC[C@H](Nc2ncc3nc(Nc4c(F)cc(F)cc4F)n([C@H]4CCOC4)c3n2)CC1 [Compound I] in your reply.
Response: 12200 ng·h/mL
